Every entry's value here was drawn from patent US4749790A.

- experiment.summary: Solubility in water
- particulars: water, Solubility in water, room temperature where printed

compound	solubility
NC(N)=Nc1nc(CSCCC(N)=NS(N)(=O)=O)cs1 [Example 12, Famotidine L-ascorbate]	75 mg/mL
